Source listed as ChEMBL document CHEMBL1275331.

Molecular target: 5-hydroxytryptamine receptor 3A (Homo sapiens, UniProt P46098)
Sequence (P46098 whole entry): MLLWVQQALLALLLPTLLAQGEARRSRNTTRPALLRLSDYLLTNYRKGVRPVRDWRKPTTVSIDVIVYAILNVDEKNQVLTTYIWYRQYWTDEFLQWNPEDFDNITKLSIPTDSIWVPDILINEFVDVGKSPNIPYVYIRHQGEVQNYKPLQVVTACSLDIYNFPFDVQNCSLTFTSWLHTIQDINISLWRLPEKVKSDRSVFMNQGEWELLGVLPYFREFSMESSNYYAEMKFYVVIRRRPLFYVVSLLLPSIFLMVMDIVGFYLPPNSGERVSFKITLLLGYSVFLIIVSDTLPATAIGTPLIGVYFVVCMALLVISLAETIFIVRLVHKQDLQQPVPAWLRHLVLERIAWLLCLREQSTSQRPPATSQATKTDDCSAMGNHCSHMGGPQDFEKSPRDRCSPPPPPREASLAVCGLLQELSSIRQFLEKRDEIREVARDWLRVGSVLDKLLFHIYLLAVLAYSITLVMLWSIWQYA
Assay: Displacement of [3H]BRL-43694 from human 5HT3 receptor expressed in HEK293 cells by liquid scintillation counting
Format: cell-based
property_name: pIC50
Formally, pIC50 is defined as -log10 of the concentration c, with c in mol/L.

Sample records with pIC50:
smiles_string: Nn1c(SCCCN2CCN(c3ccc4ccccc4n3)CC2)nc2c(c1=O)CCCC2
target_or_test_system: 5-hydroxytryptamine receptor 3A (Homo sapiens, UniProt P46098)
pIC50: 7.20
--
smiles_string: O=c1[nH]c(CCCCN2CCN(c3ccc4ccccc4n3)CC2)nc2c1CCCC2
target_or_test_system: 5-hydroxytryptamine receptor 3A (Homo sapiens, UniProt P46098)
pIC50: 7.61
--
smiles_string: Nn1c(CCCCN2CCN(c3ccc4ccccc4n3)CC2)nc2c(c1=O)CCCCC2
target_or_test_system: 5-hydroxytryptamine receptor 3A (Homo sapiens, UniProt P46098)
pIC50: 7.07

Could you now look at the following compound, please?
Fill in pIC50 for record Cc1sc2nc(SCCCN3CCN(c4nc5ccccc5s4)CC3)n(N)c(=O)c2c1C
7.06

* * *

molecular target: Kappa-type opioid receptor (Cavia porcellus, UniProt P41144)
Sequence (P41144 whole entry): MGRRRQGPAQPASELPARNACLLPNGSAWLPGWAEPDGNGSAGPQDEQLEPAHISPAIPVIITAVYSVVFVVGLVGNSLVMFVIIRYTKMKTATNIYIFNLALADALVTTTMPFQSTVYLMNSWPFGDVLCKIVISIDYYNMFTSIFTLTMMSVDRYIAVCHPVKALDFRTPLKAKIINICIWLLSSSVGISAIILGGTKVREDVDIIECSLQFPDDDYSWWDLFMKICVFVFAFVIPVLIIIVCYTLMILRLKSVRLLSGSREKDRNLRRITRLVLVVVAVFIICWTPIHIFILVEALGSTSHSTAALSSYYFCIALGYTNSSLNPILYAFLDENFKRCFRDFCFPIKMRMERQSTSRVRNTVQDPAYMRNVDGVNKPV
pIC50: −log10 of the molar value.
property_name: pIC50

Report measured pIC50 on Kappa-type opioid receptor (Cavia porcellus, UniProt P41144); entry: Nn1c(CCCCN2CCN(c3ccc4ccccc4n3)CC2)nc2c(c1=O)CCCC2
< 6.00

* * *

molecular target: Substance-K receptor (Homo sapiens, UniProt P21452); assay: Displacement of [125I]NKA from human recombinant NK2 receptor
Sequence (P21452 whole entry): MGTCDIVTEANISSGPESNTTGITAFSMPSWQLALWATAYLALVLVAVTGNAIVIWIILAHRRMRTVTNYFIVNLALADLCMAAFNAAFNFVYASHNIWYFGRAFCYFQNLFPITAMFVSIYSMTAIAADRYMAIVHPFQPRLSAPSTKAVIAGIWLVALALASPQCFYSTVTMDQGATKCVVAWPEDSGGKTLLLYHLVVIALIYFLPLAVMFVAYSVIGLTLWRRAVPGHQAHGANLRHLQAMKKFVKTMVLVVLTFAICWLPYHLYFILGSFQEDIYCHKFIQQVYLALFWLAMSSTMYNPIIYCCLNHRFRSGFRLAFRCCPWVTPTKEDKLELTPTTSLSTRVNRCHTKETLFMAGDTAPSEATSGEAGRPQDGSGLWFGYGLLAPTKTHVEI
pIC50: −log10 of the molar value.
property_name: pIC50

Fill in pIC50 for record Nn1c(CCCCN2CCN(c3ccc4ccccc4n3)CC2)nc2c(c1=O)CCCC2
< 6.00

* * *

target: UniProt:P14416; assay: Displacement of [3H]spiperone from human recombinant dopamine D2 receptor
Sequence (P14416 whole entry): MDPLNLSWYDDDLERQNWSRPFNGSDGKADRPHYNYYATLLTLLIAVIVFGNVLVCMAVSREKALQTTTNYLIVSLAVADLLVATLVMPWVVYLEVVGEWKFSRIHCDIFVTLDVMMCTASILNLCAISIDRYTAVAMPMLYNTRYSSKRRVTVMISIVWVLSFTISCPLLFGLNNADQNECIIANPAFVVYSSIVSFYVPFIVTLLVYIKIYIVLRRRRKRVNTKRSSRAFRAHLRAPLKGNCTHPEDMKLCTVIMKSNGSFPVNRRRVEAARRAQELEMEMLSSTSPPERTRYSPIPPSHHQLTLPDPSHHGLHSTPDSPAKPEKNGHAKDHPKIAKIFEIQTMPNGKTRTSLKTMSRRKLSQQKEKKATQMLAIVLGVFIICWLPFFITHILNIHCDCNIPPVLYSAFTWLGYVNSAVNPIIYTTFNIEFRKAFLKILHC
property_name: IC50

Fill in IC50 for record Nn1c(CCCCN2CCN(c3ccc4ccccc4n3)CC2)nc2c(c1=O)CCCC2
> 1000 nM

* * *

assay: Drug level in Sprague-Dawley rat brain at 3 mg/kg, po after 8 hrs by HPLC analysis; assay type: ADME, organism-based; design: dose 3 mg/kg, route oral; conditions: read-out: Drug uptake
property_name: concentration at 8 h (nM)
Response body: numeric value in nM, unit text excluded.

smiles_string: Nn1c(SCCCN2CCN(c3ccc4ccccc4n3)CC2)nc2c(c1=O)CCCC2
units_symbol: nM
concentration at 8 h: 13
--
smiles_string: CC(=O)N1CCc2c(sc3nc(CCCCN4CCN(c5ccc6ccccc6n5)CC4)n(N)c(=O)c23)C1
units_symbol: nM
concentration at 8 h: 13.4
--
smiles_string: Nn1c(CCCCN2CCN(c3ccc4ccccc4n3)CC2)nc2ccccc2c1=O
units_symbol: nM
concentration at 8 h: 204

Fill in concentration at 8 h for record CC(=O)N1CCc2c(sc3nc(SCCCN4CCN(c5ccc6ccccc6n5)CC4)n(N)c(=O)c23)C1
2.96

Fill in concentration at 8 h for record Nn1c(CCCCN2CCN(c3ccc4ccccc4n3)CC2)nc2c(c1=O)CCCC2
56.4

* * *

assay: Ratio of drug level in brain to blood in Sprague-Dawley rat at 3 mg/kg, po after 4 hrs; assay type: ADME, organism-based; design: dose 3 mg/kg, route oral
property_name: Kp at 4 h
// keep it numeric: no unit symbol after the value

Sample records with Kp at 4 h:
smiles_string: Nn1c(SCCCN2CCN(c3ccc4ccccc4n3)CC2)nc2c(c1=O)CCCC2
Kp at 4 h: 3.05
--
smiles_string: Nn1c(CCCCN2CCN(c3ccc4ccccc4n3)CC2)nc2c(c1=O)CCCC2
Kp at 4 h: 4.4
--
smiles_string: CC(=O)N1CCc2c(sc3nc(SCCCN4CCN(c5ccc6ccccc6n5)CC4)n(N)c(=O)c23)C1
Kp at 4 h: 0.357
--
smiles_string: CC(=O)N1CCc2c(sc3nc(CCCCN4CCN(c5ccc6ccccc6n5)CC4)n(N)c(=O)c23)C1
Kp at 4 h: 0.355

Could you now look at the following compound, please?
Fill in Kp at 4 h for record Nn1c(CCCCN2CCN(c3ccc4ccccc4n3)CC2)nc2ccccc2c1=O
6.59

* * *

target: 5-hydroxytryptamine receptor 1A (Homo sapiens, UniProt P08908); test: Displacement of [3H]8-OH-DPAT from human 5HT1A receptor expressed in CHO cells by liquid scintillation counting; assay type: cell-based
Sequence (P08908 whole entry): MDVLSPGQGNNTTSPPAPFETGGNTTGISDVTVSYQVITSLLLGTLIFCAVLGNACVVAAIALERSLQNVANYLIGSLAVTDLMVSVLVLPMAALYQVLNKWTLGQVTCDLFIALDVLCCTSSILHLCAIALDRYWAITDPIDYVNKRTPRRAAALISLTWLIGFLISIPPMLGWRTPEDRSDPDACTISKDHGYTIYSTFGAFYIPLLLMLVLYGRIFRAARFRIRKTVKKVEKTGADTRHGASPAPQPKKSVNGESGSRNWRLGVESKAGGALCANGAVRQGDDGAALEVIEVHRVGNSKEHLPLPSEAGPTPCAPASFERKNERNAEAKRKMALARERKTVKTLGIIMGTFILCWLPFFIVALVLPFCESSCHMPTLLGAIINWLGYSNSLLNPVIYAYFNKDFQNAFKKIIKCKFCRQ
Documented pIC50 across a set of compounds
Formally, pIC50 is defined as -log10 of the concentration c, with c in mol/L.

Sample records with pIC50:
smiles_string: Nn1c(CCCCN2CCN(c3ccc4cc(O)ccc4n3)CC2)nc2c(c1=O)CCCC2
target_or_test_system: 5-hydroxytryptamine receptor 1A (Homo sapiens, UniProt P08908)
pIC50: 7.23
--
smiles_string: Cc1sc2nc(SCCCN3CCN(c4nc5ccccc5s4)CC3)n(N)c(=O)c2c1C
target_or_test_system: 5-hydroxytryptamine receptor 1A (Homo sapiens, UniProt P08908)
pIC50: 7.18
--
smiles_string: Cc1c(N2CCN(CCCCc3nc4c(c(=O)n3N)CCCC4)CC2)nc2ccccc2c1C
target_or_test_system: 5-hydroxytryptamine receptor 1A (Homo sapiens, UniProt P08908)
pIC50: 7.19

Could you now look at the following compound, please?
Fill in pIC50 for record Cc1sc2nc(SCCCN3CCN(c4cc(C)c5ccccc5n4)CC3)n(N)c(=O)c2c1C
8.37

* * *

molecular target: 5-hydroxytryptamine receptor 1A (Homo sapiens); test: Agonist activity at human cloned 5HT1A receptor expressed in CHO cells assessed as stimulation of [35S]GTPgammaS binding after 30 mins by liquid scintillation counting; format: functional, cell-based
property_name: EC50 (µM)
Response body: numeric value in µM, unit text excluded.

Sample records with EC50:
smiles_string: Nn1c(CCCCN2CCN(c3ccc4ccccc4n3)CC2)nc2c(c1=O)CCCC2
EC50 [µM]: 0.0223
//
smiles_string: Cc1cc(N2CCN(CCCCc3nc4c(c(=O)n3N)CCCC4)CC2)nc2ccccc12
EC50 [µM]: 0.0137
//
smiles_string: Nn1c(CCCCN2CCN(c3ccc4ccccc4n3)CC2)nc2ccccc2c1=O
EC50 [µM]: 0.0307

Fill in EC50 for record Nn1c(SCCCN2CCN(c3ccc4ccccc4n3)CC2)nc2c(c1=O)CCCC2
0.182

Fill in EC50 for record CC(=O)N1CCc2c(sc3nc(SCCCN4CCN(c5ccc6ccccc6n5)CC4)n(N)c(=O)c23)C1
0.0025

* * *

biological target: 5-hydroxytryptamine receptor 1A (Homo sapiens); test: Displacement of [3H]8-OH-DPAT from human 5HT1A receptor expressed in CHO cells by liquid scintillation counting; assay type: cell-based
Documented IC50 across a set of compounds
Response body: numeric value in µM, unit text excluded.

smiles_string: Cc1cccc2nc(CCCCN3CCN(c4ccc5ccccc5n4)CC3)n(N)c(=O)c12
measured_result: 0.0135

smiles_string: Nn1c(SCCCN2CCN(c3ccc4ccccc4n3)CC2)nc2c(c1=O)CCCC2
measured_result: 0.0056

Report measured IC50 on 5-hydroxytryptamine receptor 1A (Homo sapiens); entry: Nn1c(SCCCN2CCN(c3ccc4ccccc4n3)CC2)nc2sc3c(c2c1=O)CCNC3
0.0052

Report measured IC50 on 5-hydroxytryptamine receptor 1A (Homo sapiens); entry: Nn1c(CCCCCN2CCN(c3ccc4ccccc4n3)CC2)nc2c(c1=O)CCCC2
0.0076

Report measured IC50 on 5-hydroxytryptamine receptor 1A (Homo sapiens); entry: Nn1c(CCCCN2CCN(c3nc4ccccc4cc3O)CC2)nc2c(c1=O)CCCC2
0.0964

* * *

assay: Ratio of drug level in brain to blood in Sprague-Dawley rat at 3 mg/kg, po after 8 hrs; format: ADME, organism-based; set-up: dose 3 mg/kg, route oral
property_name: Kp at 8 h
// keep it numeric: no unit symbol after the value

Sample records with Kp at 8 h:
smiles_string: CC(=O)N1CCc2c(sc3nc(SCCCN4CCN(c5ccc6ccccc6n5)CC4)n(N)c(=O)c23)C1
Kp at 8 h: 0.338
--
smiles_string: Nn1c(SCCCN2CCN(c3ccc4ccccc4n3)CC2)nc2c(c1=O)CCCC2
Kp at 8 h: 2.53
--
smiles_string: Nn1c(CCCCN2CCN(c3ccc4ccccc4n3)CC2)nc2ccccc2c1=O
Kp at 8 h: 7.65
--
smiles_string: CC(=O)N1CCc2c(sc3nc(CCCCN4CCN(c5ccc6ccccc6n5)CC4)n(N)c(=O)c23)C1
Kp at 8 h: 0.307

Could you now look at the following compound, please?
Fill in Kp at 8 h for record Nn1c(CCCCN2CCN(c3ccc4ccccc4n3)CC2)nc2c(c1=O)CCCC2
6.54
